- Test system: UO-31
- protocol: NCI tumour cell line growth inhibition, 48 h
Active and inactive are the calls of the source. Rule as the data show it: active = GI50 up to about 1.1 µM and inactive = higher.
Catalogue of compounds with associated GI50

Dear colleague, I am looking for the recorded GI50 of the following compound: COc1ccc(NC2=NCCO2)c2ccccc12
> 10 µM (inactive)

Look up GI50 for this compound: C/C=C1/C[C@@H](C)[C@@](C)(O)C(=O)OCC2=CC[N+]3([O-])CC[C@@H](OC1=O)[C@@H]23 (stereo not given in full) [SENECIONINE N-OXIDE]
> 100 µM (inactive)

----------
- System: HL-60
- protocol: NCI tumour cell line growth inhibition, 48 h
Activity calls are given as the source filed them. No stated cut-off is given here; in the data, active = GI50 up to about 1.1 µM and inactive = higher.
parameter measured: GI50

Recorded results for 5 molecules are shown here.
Quick one: GI50 for CCSc1ncnc2c(C3OC(CO)C(O)C3O)nsc12 (stereo not given) ?
> 100 µM (inactive)

Using the record for c1ccc2nc3c(nc2c1)sc1nc2ccccc2n13 , report its GI50.
> 100 µM (inactive)

Please report the recorded GI50 for CC(=O)NC1C(OCc2ccccc2)OC(CO)C(O)C1OC(C)C(=O)NC(C)C(=O)N[C@@H](CCC(=O)OCCCNC1c2ccccc2Nc2cccc([N+](=O)[O-])c21)C(N)=O (stereo not given in full) .
< 0.0117 µM (active)

Consider the molecule CCCCC1Cc2cc(O)ccc2-c2nc3cc(O)ccc3n21.CCCCC1Cc2cc(O)ccc2-c2nc3ccc(O)cc3n21 (stereo not given) and give its measured GI50.
19.1 µM (inactive)

Could you share which GI50 value was measured for O=Cc1ccc(-c2ccc(-c3ccc(CO)s3)o2)s1 ?
3.85 µM (inactive)

Please look at the following molecule next.
Reported GI50 for Cn1cc(C(=O)c2nccc3c2cnc2ccccc23)ccc1=O : what is it?
> 100 µM (inactive)

----------
- Test system: CAKI-1
- protocol: NCI tumour cell line growth inhibition, 48 h
Active and inactive are the calls of the source. No stated cut-off is given here; in the data, active = GI50 up to about 1.1 µM and inactive = higher.
parameter measured: GI50

Form field: reported GI50 of C=C/C=C/NC(=O)OCc1ccccc1
> 100 µM (inactive)

Look up GI50: COC(=O)CNC(=O)C(Cc1ccccc1)NC(=O)c1ccc(-c2ccc(Cl)cc2Cl)o1 (stereo not given)
19.2 µM (inactive)

What measured GI50 goes with CN(C)c1nc2sc3c(c2c(=O)o1)CCCC3 ?
35.3 µM (inactive)

Param item = Cc1c2ccccc2cc2nc3ccccc3n12 ; retrieve measured GI50.
> 10 µM (inactive)

Fill blank: measured GI50 of the compound CCC1=CCN(c2cc(C)ccn2)OC1c1ccc(OC)cc1 (stereo not given) is ____.
34.4 µM (inactive)

Others:
Give its GI50 value. Item: NCCCNC1(c2cc3ccccc3s2)CCCCC1
8.43 µM (inactive)

I would be grateful if you could share the reported GI50 for Cc1cccc(Nc2cn(COCc3ccccc3)c(=O)[nH]c2=O)c1 .
> 100 µM (inactive)

----------
- Test system: M14
- protocol: NCI tumour cell line growth inhibition, 48 h
Active and inactive are the calls of the source. Rule as the data show it: active = GI50 up to about 1.1 µM and inactive = higher.
Pick one: 1.0 for active, 0.0 for inactive

The following compounds have reported results that may help.
Could you please tell me the result logged for Cc1oc(N)c(S(=O)(=O)c2cc3ccccc3[n+]([O-])c2N)c1C in this assay?
0.0

Just curious, what result did Cc1c(Cl)nc(Cl)nc1Cl get here?
1.0

Given CN(CCN1C(=O)c2cccc3cccc(c23)C1=O)CCN1C(=O)c2cccc3cccc(c23)C1=O , state the outcome it received in this test.
0.0

Short answer needed: outcome of this test for COC(=O)OCC1OC(N2C(=O)NC(=O)C(Br)C2N=[N+]=[N-])CC1OC(=O)OC (stereo not given) ?
0.0

Lab note: next compound to report on.
Hi, sorry to bother you, what did the test record for COc1cccc2c1C(=O)c1c(O)c3c(c(O)c1C2=O)C[C@@](O)(C(=O)CO)C[C@@H]3OC1CC(N)CC(C)O1 (stereo not given in full) ?
1.0

----------
List of GI50 values.
- Test system: SK-MEL-28
- protocol: NCI tumour cell line growth inhibition, 48 h
Active and inactive are the calls of the source. No stated cut-off is given here; in the data, active = GI50 up to about 1.1 µM and inactive = higher.

Which GI50 reading was recorded for the molecule Fc1cccc(F)c1C1SCc2nc3cc(Cl)ccc3n21 (configuration not stated) ?
50.8 µM (inactive)

GET /values?readout=GI50&item= CC1=C2CC(C)(C)CC(=O)C2(C)CCC1=O (configuration not stated)
> 100 µM (inactive)

For the molecule Cc1ccc(C)c(NC(=O)CC/C(=N\NC(=O)C(N)=O)C(C)C(=O)c2ccc(O)cc2)c1 (configuration not stated) , what GI50 is on record?
> 100 µM (inactive)

Endpoint output: GI50 of CC1(C)c2ccccc2C(C)(C)C(C(=O)Nc2ccccc2)C1C(=O)O (configuration not stated) . Value?
> 100 µM (inactive)

Return reported GI50; argument: C=C1C(=O)O[C@@H]2/C=C(C)/C=C\[C@@H]3O[C@@]3(C)C[C@@H](O)C12 (some centres not stated)
19.9 µM (inactive)

State the recorded GI50 for this entry: COC(=O)c1c[nH]c2c1-c1cc(C(=O)OCc3ccccc3)n(S(=O)(=O)c3ccc(C)cc3)c1C(=O)C2=O
0.12 µM (active)

Entry under review: CC1C=CC(=O)C(n2cc(F)c(=O)[nH]c2=O)O1 (configuration not stated) . Reported GI50?
23.4 µM (inactive)

GI50 lookup needed for O=C1/C(=C\c2ccc(F)cc2)CCOc2c1ccc1ccccc21 , thanks.
23.3 µM (inactive)

Field request: GI50 | item: CCCCCCCCCCCCCC(=O)OCC1OC(n2cc(F)c(=O)[nH]c2=O)C(NC(=O)OCc2ccccc2)C(OC(=O)CCCCCCCCCCCCC)C1O (configuration not stated)
> 100 µM (inactive)

Requested read-out: GI50. Entry: N=C(N)NS(=O)(=O)c1ccc(Nc2c3ccccc3nc3c(C(=O)NCCO)cccc23)cc1
0.248 µM (active)

// moving on: another record for GI50
Returns the measured GI50 for the input molecule. Input: Cc1cc(NC2=NCCO2)c2c(c1C)CCCC2
15.4 µM (inactive)

----------
- System: ACHN
- protocol: NCI tumour cell line growth inhibition, 48 h
Active and inactive are the calls of the source. Cut-off read from the data, not from the text of the source: active = GI50 up to about 1.1 µM and inactive = higher.
parameter measured: GI50

Consider the worked cases shown below.
Value lookup for GI50; key = O=C(O)CCC1(CCC(=O)O)CCCCCCCCC(CCC(=O)O)(CCC(=O)O)C(=O)C1=O
> 100 µM (inactive)

For C=CCNC1=NC(=O)C(CC(=O)Nc2cccc(Cl)c2)S1 (configuration not stated) , what is its reported GI50?
> 100 µM (inactive)

Which GI50 value is on record for CCOP(=O)(CCCC(O)CNc1nc(N)nc(Cl)c1/N=N/c1ccc(Cl)cc1)OCC (configuration not stated) ?
4.05 µM (inactive)

Given CCCC(N)C(=O)c1ccccc1 (configuration not stated) , state its recorded GI50.
> 100 µM (inactive)

Others:
Returns the measured GI50 for the input compound. Input: O=C(Nc1ccc(Cl)c(C(F)(F)F)c1)C(=O)c1c(O)c2ccccc2oc1=O
> 100 µM (inactive)

For the compound CCN(CC)C(=S)N/N=C(\C)c1cccc(C)n1 , what GI50 is on record?
0.0184 µM (active)

Which GI50 is reported for this compound? CCCCCCCCCC[C@@H](O)[C@H]1CC[C@@H]([C@H]2CC[C@H]([C@H](O)CCCCCCCCCC[C@@H]3CC(CC(C)=O)C(=O)O3)O2)O1 (some centres not stated)
1.17 µM (inactive)

# lookup: GI50 of O=C1NC2(C=Cc3c(ccc4ccccc34)O2)Oc2ccccc21 (configuration not stated)
18.7 µM (inactive)

Looking for the measured GI50 of CC(C)CC(NC(=O)C(O)C(N)Cc1ccccc1)C(=O)O (configuration not stated) , can you help?
> 100 µM (inactive)

Could you tell me which GI50 is on file for Cc1cc2ccccc2n1CC(=O)N1CCCC1 ?
> 100 µM (inactive)

Can you share its GI50? I mean this compound: COc1cccc2c(SCC(=O)Nc3ccccc3-c3ccccc3NC(=O)CSc3c4ccccc4nc4c(OC)cccc34)c3ccccc3nc12
> 100 µM (inactive)

Give the measured GI50 of CC(=O)Nc1ccc(S(=O)(=O)NN(C)S(=O)(=O)c2ccc(C)cc2)cc1 .
> 100 µM (inactive)

Requested read-out: GI50. Entry: COC(=O)C1C2CCCN2OC1(C)CO (configuration not stated)
> 100 µM (inactive)

----------
- Tested on: OVCAR-5
- protocol: NCI tumour cell line growth inhibition, 48 h
Active and inactive are the calls of the source. No stated cut-off is given here; in the data, active = GI50 up to about 1.1 µM and inactive = higher.
Please answer using one outcome listed in TRUE = active, FALSE = inactive

// below: answered molecules
Hi, sorry to bother you, what did the test record for c1ccc2nc3c(nc2c1)sc1nc2ccccc2n13 ?
FALSE

Per the assay record, what outcome was assigned to O=[N+]([O-])c1ccc(Nc2nc3ccccc3s2)cc1 ?
FALSE

Check the results log: what was the call for COc1ccc2c(c1)[n+]([O-])c(C(=O)C/C(=N/NC(=O)C[N+](C)(C)C)C(=O)Nc1cccc(C)c1C)c(C)[n+]2[O-] ?
FALSE

Further cases:
// return assay outcome for O=Cc1c(Br)[nH]c2ccccc12
FALSE

Each molecule tested received a call. Report the one for COC(=O)c1c(O)ccc2[nH]c3c(O)c4ccccc4cc3c12 .
FALSE

Outcome logged for NCCCNC1(c2cc3ccccc3s2)CCCCC1 in this assay:
FALSE

Hi, do you know how CCOC(=O)c1c(O)cn2c1[nH]c1cccc3cccc2c31 came out in this test?
FALSE

What outcome does the record of this test show for Cc1ccc2c(c1)/C(=N/Nc1ccccc1[N+](=O)[O-])C(=O)N2 ?
FALSE

State the result this test recorded for O=C(O)Cc1ccc2nc(COC(=O)c3ccccc3)sc2c1 .
FALSE

Could you check what this test reported for Cc1nc(Nc2ccc(Cl)cc2)sc1C(=O)NNC(=S)NN ?
FALSE

Please indicate how the test categorized CC1C2CC(CC2N)C1(C)C (stereo not drawn) .
FALSE

Lab log entry: Cc1ccccc1N(C)S(=O)(=O)c1ccccc1[N+](=O)[O-] — outcome as called in the assay?
FALSE

I would be grateful if you could indicate the recorded call for NC(=O)CC(/N=C1\C(=O)OC(C(O)CO)\C1=N/C(CC(N)=O)C(=O)O)C(=O)O (stereo not drawn) .
FALSE
